Test: antimalarial activity against Dd2 strain (AID 2302);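 further: 0% = DMSO untreated growth and 100% = chloroquine plus artemisinin killed control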
Details: P. falciparum Dd2 in RBCs, LDH growth readout, 72 h; at 2 µM; active compounds read high
Calls of active or inactive are those of the source.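 How the source made its calls: active means growth inhibition above 50% at the single 2 µM test dose, taken to imply half-maximal potency below 2 µM; inactive means the rest.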
measurement_kind: growth inhibition

Q: Please report the recorded growth inhibition for "CCc1cn2c3c(cc(C(=O)N[C@@H](Cc4ccccc4)[C@H](O)CNCc4cccc(C)c4)cc13)N(C)S(=O)(=O)CC2" .
Result: 98% (active)

Q: Subsequent entry: CC(CN(C)C)C(=O)Nc1ccc(-c2ccc(-c3nc4ccccc4[nH]3)s2)cc1 (configuration not stated)
Result: 86% (active)

Q: Subsequent entry: "Nc1ncnc2nc(-c3ccc(F)cc3)cc(-c3ccc(NC(=O)c4ccccc4)cc3)c12"
Result: 97% (active)

Q: Subsequent entry: "COc1cc2nc(NCc3nc4ccccc4[nH]3)nc(N)c2cc1OC"
Result: 10% (inactive)

Q: Subsequent entry: "CCCc1cc(Cc2cnc(N)nc2N)cc(CCC)c1OCCCCCC(=O)OCC"
Result: -3% (inactive)

Q: Subsequent entry: "CC(=O)Oc1c(C2CCN(CCCCNC(=O)c3ccc(NC(=O)c4ccc(Cl)cc4)cc3)CC2)ccc2ccccc12"
Result: 92% (active)

Q: Subsequent entry: "CC1(C)CCCN(Cc2c(O)ccc3c(=O)c(-c4nc5ccccc5s4)c(N)oc23)C1"
Result: 100% (active)

Q: Subsequent entry: "CC(C)CNCc1cccc(-c2cccc(CN(CCCN3CCN(C)CC3)C(=O)CCC3CCCC3)c2)c1"
Result: 96% (active)

Q: Subsequent entry: C=CCOc1ccccc1CNCC(O)c1cc(Br)cs1 (configuration not stated)
Result: 72% (active)

Q: Subsequent entry: "CC(C)(C)c1ccc(NC(=O)c2ccc(CN3CCCN(Cc4cccc(O)c4)CC3)cc2)cc1"
Result: 62% (active)

Q: Subsequent entry: "Cn1nccc1C(=O)NCCNCc1cccc(-c2ccc(-c3nc4ccc(C(F)(F)F)cc4[nH]3)s2)c1"
Result: 99% (active)

Q: Subsequent entry: "COc1cccc2c(Oc3ccccc3C)ccnc12"
Result: 45% (inactive)

Q: Subsequent entry: "CC(C)n1c(C2CCN(CC3CCN(C(=O)/C=C/c4ccc(Cl)c(Cl)c4)CC3)CC2)nc2ccccc21"
Result: 7% (inactive)

Q: Subsequent entry: "CCc1cn2c3c(cc(C(=O)N[C@@H](Cc4ccccc4)[C@H](O)CNC4CCC4)cc13)N(C)S(=O)(=O)CC2"
Result: 98% (active)

Q: Subsequent entry: Clc1ccc(CNc2nc(NCCc3cnc[nH]3)nc(N3CCCC4CCCCC43)n2)cc1 (configuration not stated)
Result: 100% (active)

Q: Subsequent entry: Cc1nc(-c2cccc(NC(C)C(=O)Nc3cc(C(F)(F)F)ccc3N3CCOCC3)c2)cs1 (configuration not stated)
Result: 97% (active)

Q: Subsequent entry: CN1c2ccc([N+](=O)[O-])cc2C(C)(C)C12C=Cc1cc(Br)cc([N+](=O)[O-])c1O2 (configuration not stated)
Result: 99% (active)

Q: Subsequent entry: "CN1CCC(OC(=O)c2cc3cc(-c4ccccc4)ccc3n2S(=O)(=O)c2ccccc2)CC1"
Result: 10% (inactive)

Q: Subsequent entry: N#Cc1ccc(-c2ccc(OCC(O)CN3CCCN(Cc4cccc(O)c4Cl)CC3)cc2)cc1 (configuration not stated)
Result: 66% (active)

Q: Subsequent entry: "CCCc1cccc(C)c1OCCCON1C(N)=NC(N)=NC1(C)C"
Result: 96% (active)

Q: Subsequent entry: "O=C(Cc1cccc(OCCCN(Cc2cccc(C(F)(F)F)c2Cl)CC(c2ccccc2)c2ccccc2)c1)NCc1ccco1"
Result: 84% (active)

Q: Subsequent entry: "CCCC1(NC[C@@H](O)[C@H](Cc2ccccc2)NC(=O)c2cc(NCC)cc(N3CCCCS3(=O)=O)c2)CCCCC1"
Result: 98% (active)

Q: Subsequent entry: "Cc1cc(C(=O)OCC(N)=O)c(C)n1-c1ccc(F)cc1"
Result: 96% (active)

Q: Subsequent entry: "CCN(CC)CCN(Cc1ccc(-c2ccc(C(F)(F)F)cc2)cc1)C(=O)Cn1c(CCc2cccc(F)c2F)nc(=O)c2ccc(F)cc21"
Result: 41% (inactive)

Q: Subsequent entry: "CC(C)CNC(=O)c1cncc(-c2ccc(CN(C)C3CCN(C)CC3)cc2)c1"
Result: 84% (active)

Q: Subsequent entry: NC1=NC(CCc2ccccc2)N(c2ccc(Cl)cc2)C(N)=N1 (configuration not stated)
Result: 20% (inactive)

Q: Subsequent entry: "CCCCc1cc(=O)oc2cc(C)cc(OCc3ccccc3F)c12"
Result: 78% (active)

Q: Subsequent entry: "O=C(C=Cc1ccc(Cl)c(Cl)c1)NC1CCN(CCc2ccccc2)CC1"
Result: 13% (inactive)

Q: Subsequent entry: "Cc1cc(-c2cccc(CNC3CCN(C)CC3)c2)ccc1S(=O)(=O)NCCN1CCCC1"
Result: 0% (inactive)

Q: Subsequent entry: "Cc1noc(C)c1-c1cccc(CNCc2cccc(-c3ccc(-c4nc5ccc(C(F)(F)F)cc5[nH]4)s3)c2)c1"
Result: 95% (active)

Q: Subsequent entry: "Cc1cc(N[C@@H](Cc2ccccc2)C(=O)NCc2cccc(F)c2)nc(NCCc2ccccc2)n1"
Result: 73% (active)

Q: Subsequent entry: "CC(C)C1=C[C@H]2C[C@]3(C4OCCO4)[C@@H]4CC[C@@H](C)[C@H]4C[C@@]2(COCc2cccc(C#N)c2)[C@]13C(=O)OC(c1ccccc1)c1ccccc1"
Result: 92% (active)

Q: Subsequent entry: "O[C@H](c1cc(C(F)(F)F)nc2c(C(F)(F)F)cccc12)[C@@H]1CCCCN1"
Result: 99% (active)

Q: Subsequent entry: "COc1ccc2nccc([C@@H](O)CN3CCC(NCc4nc5cc(F)ccc5o4)CC3)c2c1"
Result: 12% (inactive)

Q: Subsequent entry: "CCOC(=O)NC1=NC(C)(C)N(OCc2ccc(Cl)c(Cl)c2)C(NC(=O)OCC)=N1"
Result: 4% (inactive)

Q: Subsequent entry: "COc1ccc(NC(=O)[C@H](Cc2ccccc2)Nc2cc(C)nc(Nc3ccccc3)n2)cc1"
Result: 92% (active)

Q: Subsequent entry: "Cc1cccc2[nH]c(-c3ccc(-c4cccc(NC(=O)Nc5ccsc5)c4)s3)nc12"
Result: 29% (inactive)
